The values you see were collected from patent US20240207432A1.

Provide the recorded kon for the entries that follow.
Biological target: T1, cynomolgus TROP2-his protein (cynomolgus monkey, UniProt P09758 27-272 (human entry), limits assumed)
T1 construct: no cleavage site is stated; also called Cynomolgus monkey TROP2-his protein; monkey TROP2
T1 chain: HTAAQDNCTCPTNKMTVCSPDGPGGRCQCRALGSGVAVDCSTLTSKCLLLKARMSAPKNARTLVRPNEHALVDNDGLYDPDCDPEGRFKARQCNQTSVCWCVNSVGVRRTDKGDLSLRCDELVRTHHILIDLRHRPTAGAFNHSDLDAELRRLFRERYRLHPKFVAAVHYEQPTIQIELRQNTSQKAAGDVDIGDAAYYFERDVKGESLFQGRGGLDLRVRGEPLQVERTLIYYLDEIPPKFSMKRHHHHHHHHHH
Test: SPR Biacore T200, mAb captured on anti-mouse IgG CM5 chip, TROP2-his analyte
Give bare numbers, in M⁻¹ s⁻¹.

Observe how each entry below is paired with its result.
Binder	Measurement Units	kon
mouse antibody A1H3C5H8E12 (antibody, V domains shown, Mouse monoclonal IgG purified from hybridoma supernatant) VH: QVQLQQSGAELVRPGTSVKMSCKAAGYTFTNYWIDWVKQRPGHGLEWIGNIFPGGFYTNYNEKFKGKATLTADTSSSTAYMQLSSLTSEDSAIYYCARGGVFDYWGQGTTLTVSS VL: DILLTQSPAILSVSPGERVSFSCRASQSIGTSIHWYQQRTNGSPRLLIKYASESISGIPSRFSGSGSGTDFTLSINSVESEDIADYYCQQSNSWPYTFGGGTKLEIK	M⁻¹ s⁻¹	674000
mouse antibody B1G1F5A3 (antibody, V domains shown, Mouse monoclonal IgG purified from hybridoma supernatant) VH: EVQLQQSGPELVKPGTSVKMSCKASGYSFADYSMNWVRQSHGNSLEWIGYIYPNNGASGFNQKFKGKATLTVDKSSSTAYMELHSLTSEDSAVYYCAREQDNSGYCFDYWGQGTSLTVSS VL: DVVMTQTPLSLAVRLGDQASISCRSSLNLVHSNGNTFLHWYLQRPGQSPKLLIYKVSNRFSGVSDRFSGSGSGTDFTLKISRVEAEDLGVYFCSQTTHVPTFGGGTKLEIK	M⁻¹ s⁻¹	156000
mouse antibody A1E4F7D4 (antibody, V domains shown, Mouse monoclonal IgG purified from hybridoma supernatant; also called Mouse A1E4F7D4) VH: QVQLQQSGAELAKPGTSVKMSCEASGYSFTTHWIHWMKQRPGQGLEWIGTIFPSNAYAVYNQKFRDRAIMTADRSSTTAYIQLTGLTSEDSAVYYCARASYFDYWGQGTTLTVSS VL: DILLTQSPATLSVSPGERVTFSCRASQNIGTSIHWFQQRTTGSPRLLIKYASESISGIPSRFSGSGSGTDFTLHINSVESEDIAHYYCQHSHSWPFTFGSGTKLEIQ	M⁻¹ s⁻¹	483000
mouse antibody C1B3B12D2 (antibody, V domains shown, Mouse monoclonal IgG purified from hybridoma supernatant) VH: QVQLQQSGPELVRPGTSVKMSCKAAGYTFTKFWIGWVKQRPGHGLEWIGNIYPGGAYINYNENFKGKATLTADTFSSTAYMQLNSLTSADSAIYYCAREGSSGYWGQGTTLTVSS VL: DIVMTQSPSSLTVTAGEKVTLSCKCSQSLLNSGTQENYLTWYQQKPGQPPKMLIYWASIREPGVPDRFTGSGSGTDFTLTINNVQAEDLAVYYCQHDYSYPFTFGSGTKLEIK	M⁻¹ s⁻¹	508000
mouse antibody A1B12D2B4E7B3 (antibody, V domains shown, Mouse monoclonal IgG purified from hybridoma supernatant) VH: EVQLQQSGPELVKPGASVKMSCKASGFTFTDYYMNWVKQSHGKSLEWIGYIYPNHGGTGYNQKFKDKATLTVDKSSSTAYMELRSLTSDDSAVYYCARENYGYAMDYWGQGTSVTVSS VL: DVVMTQTPLSLPVSLGDQASISCRSSQSLVHGDGNTYLHWFLQKPGQSPKLLIYTVSNRFSGVPDRFSGSGSGTDFTLKINRVEAEDLGIYFCSQTTHVPTFGGGTKLEIK	M⁻¹ s⁻¹	111000

Attention now shifts to the item below.
Lookup: Give kon for mouse antibody A1E11A12D1 (antibody, V domains shown, Mouse monoclonal IgG purified from hybridoma supernatant) VH: QVQLQQSGAELARPGASVKLSCMASGYTFTTYGISWVRQRTGQGLEWIGQIYPGSDYSYCDEDFKGKATLTADKSSSTAYMQLSSLTSEDSAVYFCARASYFDYWGQGTTLTVSS VL: DILLTQSPAILSVSPGERVSFSCRASQTIGTAIHWYQQRANGSPRLLIKYASESISGIPSRFSGSGSGTDFALSINTVESEDFAYYYCQQSNNWPFTFGGGTKLEIR
Found: 678000
